conditions: rat, microsomes
Outcome Measure: Rat. Pred. Cl. (L/H/kg)
Respond with the bare value in L/H/kg.

Check out these entries, answers already filled in.
1) CCC(=O)N[C@H](C(=O)NN(Cc1c(F)cc(-c2ccn(C(F)F)n2)cc1F)C[C@H](O)[C@H](Cc1ccc(C#Cc2ccc(N3CC4CCC(C3)N4C3COC3)nc2)cc1)NC(=O)[C@@H](NC(=O)OC)C(C)(C)C(F)(F)F)C(C)(C)C [Example 185] | 0.31
2) COC(=O)N[C@H](C(=O)N[C@@H](Cc1ccc(-c2cnc(N3CC4CCC(C3)N4C3COC3)nc2)cc1)[C@@H](O)CN(Cc1c(F)cc(-c2ccn(CC(F)F)n2)cc1F)NC(=O)[C@@H](NC(=O)OC)C(C)(C)C(F)(F)F)C(C)(C)C(F)(F)F [Example 197] | 0.32

Query: Fill blank: measured Rat. Pred. Cl. of the molecule COC(=O)N[C@H](C(=O)N[C@@H](Cc1ccc(C#Cc2ccc(N3CC4COCC(C3)N4)nc2)cc1)[C@@H](O)CN(Cc1c(F)cc(-c2ccn(C(F)F)n2)cc1F)NC(=O)[C@@H](NC(=O)OC)C(C)(C)C(F)(F)F)C(C)(C)C(F)(F)F [Example 26] is ____.
Response: 1.6

Query: Fill blank: measured Rat. Pred. Cl. of the molecule COC(=O)N[C@H](C(=O)N[C@@H](Cc1ccc(C#Cc2ccc(N3CC4CCC(C3)N4C3COC3)nc2)cc1)[C@@H](O)CN(Cc1c(F)cc(-c2ccn(CC(F)F)n2)cc1F)NC(=O)[C@@H](NC(=O)OC)C(C)(C)C(F)(F)F)C(C)(C)C(F)(F)F [Example 46] is ____.
Response: 0.19

Query: Fill blank: measured Rat. Pred. Cl. of the molecule COC(=O)N[C@H](C(=O)N[C@@H](Cc1ccc(C#Cc2ccc(N3CC4CC(C3)N4C3COC3)nc2)cc1)[C@@H](O)CN(Cc1c(F)cc(-c2ccn(C3CC3)n2)cc1F)NC(=O)[C@@H](NC(=O)OC)C(C)(C)C(F)(F)F)C(C)(C)C(F)(F)F [Example 40] is ____.
Response: 0.5

Query: Fill blank: measured Rat. Pred. Cl. of the molecule COC(=O)N[C@H](C(=O)NN(Cc1c(F)cc(-c2ccccn2)cc1F)C[C@H](O)[C@H](Cc1ccc(C#Cc2ccc(N3CC4CCC(C3)N4C3COC3)nc2)cc1)NC(=O)[C@@H](NC(=O)OC)C(C)(C)C(F)(F)F)C(C)(C)C [Example 53] is ____.
Response: 0.2

Query: Fill blank: measured Rat. Pred. Cl. of the molecule COC(=O)N[C@H](C(=O)N[C@@H](Cc1ccc(-c2ccc(N3CC4CCC(C3)N4C3COC3)nc2)cc1)[C@@H](O)CN(Cc1c(F)cc(-c2ccn(C(F)F)n2)cc1F)NC(=O)[C@@H](NC(=O)OC)C(C)(C)C(F)(F)F)C(C)(C)C(F)(F)F [Example 208] is ____.
Response: 0.74

====

Assay: in vivo
Details: rat, in vivo, iv
Experimental: Each dosing group consisted of 3 male naïve SD Rats. At dosing, the animals weighed between 0.27 to 0.32 kg. The animals were fasted overnight prior to dose administration. The test article was administered by intravenous infusion over 30 min. The rate of infusion was adjusted according to the body weight of each animal to deliver a dose of 0.5 or 1.0 mg/kg. For the oral dosing group, the test article was administered to animals by oral gavage administration. […]
The molecules listed here are annotated with their RAT IV T1/2.

Check out these entries, answers already filled in.
1. COC(=O)N[C@H](C(=O)N[C@@H](Cc1ccc(C#Cc2ccc(N3CC4COCC(C3)N4C3COC3)nc2)cc1)[C@@H](O)CN(Cc1c(F)cc(-c2ccn(C(F)F)n2)cc1F)NC(=O)[C@@H](NC(=O)OC)C(C)(C)C(F)(F)F)C(C)(C)C(F)(F)F | 2.81 h
2. COC(=O)N[C@H](C(=O)N[C@@H](Cc1ccc(C#Cc2ccc(N3CC4CCC(C3)N4C3COC3)nc2)cc1)[C@@H](O)CN(Cc1c(F)cc(-c2ccn(C3CC3)n2)cc1F)NC(=O)[C@@H](NC(=O)OC)C(C)(C)C(F)(F)F)C(C)(C)C(F)(F)F | 9.38 h

Query: Fill blank: measured RAT IV T1/2 of the molecule COC(=O)N[C@H](C(=O)N[C@@H](Cc1ccc(C#Cc2ccc(N3CC4CCC(C3)N4C3COC3)nc2)cc1)[C@@H](O)CN(Cc1c(F)cc(-c2ccn(C(F)F)n2)cc1F)NC(=O)[C@@H](NC(=O)OC)C(C)(C)C(F)(F)F)C(C)(C)C(F)(F)F is ____.
Response: 12.8 h

Query: Fill blank: measured RAT IV T1/2 of the molecule COC(=O)N[C@H](C(=O)N[C@@H](Cc1ccc(C#Cc2cnc(N3CC4CCC(C3)N4C3COC3)nc2)cc1)[C@@H](O)CN(Cc1c(F)cc(-c2ccn(CC(F)F)n2)cc1F)NC(=O)[C@@H](NC(=O)OC)C(C)(C)C(F)(F)F)C(C)(C)C(F)(F)F is ____.
Response: 15.7 h

Query: Fill blank: measured RAT IV T1/2 of the molecule COC(=O)N[C@H](C(=O)N[C@@H](Cc1ccc(C#Cc2ccc(N3CC4CCC(C3)N4C3COC3)nc2)cc1)[C@@H](O)CN(Cc1c(F)cc(-c2ccccn2)cc1Cl)NC(=O)[C@@H](NC(=O)OC)C(C)(C)C(F)(F)F)C(C)(C)C(F)(F)F is ____.
Response: 11.6 h

Query: Fill blank: measured RAT IV T1/2 of the molecule COC(=O)N[C@H](C(=O)N[C@@H](Cc1ccc(C#Cc2ccc(N3CC4CCC(C3)N4C3COC3)nc2)cc1)[C@@H](O)CN(Cc1c(F)cc(-c2cn(C(F)F)cn2)cc1F)NC(=O)[C@@H](NC(=O)OC)C(C)(C)C(F)(F)F)C(C)(C)C(F)(F)F is ____.
Response: 5.13 h

Query: Fill blank: measured RAT IV T1/2 of the molecule COC(=O)N[C@H](C(=O)N[C@@H](Cc1ccc(C#Cc2ccc(N3CC4CCC(C3)N4C3COC3)nc2)cc1)[C@@H](O)CN(Cc1c(F)cc(-c2ccn(CC(F)F)n2)cc1F)NC(=O)[C@@H](NC(=O)OC)C(C)(C)C(F)(F)F)C(C)(C)C(F)(F)F is ____.
Response: 9.22 h

Query: Fill blank: measured RAT IV T1/2 of the molecule COC(=O)N[C@H](C(=O)N[C@@H](Cc1ccc(C#Cc2ccc(N3CC4CCC(C3)N4C3COC3)nc2)cc1)[C@@H](O)CN(Cc1ccc(-c2cnn(C(F)F)c2)cc1)NC(=O)[C@@H](NC(=O)OC)C(C)(C)C(F)(F)F)C(C)(C)C(F)(F)F is ____.
Response: 11.9 h

Query: Fill blank: measured RAT IV T1/2 of the molecule COC(=O)N[C@H](C(=O)N[C@@H](Cc1ccc(C#Cc2cnc(N3CC4CCC(C3)N4C3COC3)nc2)cc1)[C@@H](O)CN(Cc1c(F)cc(-c2cnn(C(F)F)c2)cc1F)NC(=O)[C@@H](NC(=O)OC)C(C)(C)C(F)(F)F)C(C)(C)C(F)(F)F is ____.
Response: 12.9 h

Query: Fill blank: measured RAT IV T1/2 of the molecule COC(=O)N[C@H](C(=O)N[C@@H](Cc1ccc(C#Cc2cnc(N3CC4CCC(C3)N4C3COC3)nc2)cc1)[C@@H](O)CN(Cc1c(F)cc(-c2ccn(C(F)F)n2)cc1F)NC(=O)[C@@H](NC(=O)OC)C(C)(C)C(F)(F)F)C(C)(C)C(F)(F)F is ____.
Response: 22.5 h

Query: Fill blank: measured RAT IV T1/2 of the molecule COC(=O)N[C@H](C(=O)N[C@@H](Cc1ccc(C#Cc2cnc(N3CC4CCC(C3)N4C3COC3)nc2)cc1)[C@@H](O)CN(Cc1c(F)cc(-c2ncccn2)cc1F)NC(=O)[C@@H](NC(=O)OC)C(C)(C)C(F)(F)F)C(C)(C)C(F)(F)F is ____.
Response: 10.2 h

Query: Fill blank: measured RAT IV T1/2 of the molecule COC(=O)N[C@H](C(=O)N[C@@H](Cc1ccc(C#Cc2ccc(N3CC4CCC(C3)N4C3COC3)nc2)cc1)[C@@H](O)CN(Cc1c(F)cc(-c2cnn(C(F)F)c2)cc1F)NC(=O)[C@@H](NC(=O)OC)C(C)(C)C(F)(F)F)C(C)(C)C(F)(F)F is ____.
Response: 9.27 h
